Cited source: the supplement of paper PMC12636033

- System: 2Sp-muMax20 (muMax20 with two 2,6-bis(methyl)pyridine Cys staples)
- experiment_summary: PBM 8-mer E-score (E-score (rank enrichment, -0.5 to 0.5)); higher = stronger preferential binding
In all, about 33,000 sequences were measured (“E-score (rank enrichment, -0.5 to 0.5)”: median about -0.0043, highest 2% from about 0.24 on). This excerpt belongs to a sample that is enriched for the highest values.
measured_attribute: PBM 8-mer E-score

Solved entries:
CAGAAAAC | 0.0606
ACACGTGT | 0.421
ATACTTGG | 0.0935

// field: PBM 8-mer E-score; key: CGGGTCAC ; value = -0.118

// PBM 8-mer E-score lookup, sequence = GTAAACTA , result: 0.175

Lab note: ATCGATCA gave PBM 8-mer E-score of 0.0704

The reported value for ATAGTATC in terms of PBM 8-mer E-score is 0.0888

Lab note: CCATTCGC gave PBM 8-mer E-score of -0.13

sequence ACGCGTGA , PBM 8-mer E-score observed: 0.25

PBM 8-mer E-score measured on ACACGTAT = 0.178

According to the records, this sequence CGGGTCCC displays PBM 8-mer E-score of -0.36

====

- Tested on: 2Sp-muMax20 (muMax20 with two 2,6-bis(methyl)pyridine Cys staples)
- experiment_summary: PBM 8-mer E-score (E-score (rank enrichment, -0.5 to 0.5)); higher = stronger preferential binding
The full ranking holds about 33,000 sequences; the median of “E-score (rank enrichment, -0.5 to 0.5)” is about -0.0043, and the highest 2% start at about 0.24. The full list was thinned out, with the highest values kept by preference.
So basically: PBM 8-mer E-score at 0.1 or higher? That is Criterion met. Lower than 0.1? That is Criterion not met.

CATGGGCG | Criterion not met
GACTATAC | Criterion met
TACGCGTA | Criterion not met
CACTATAC | Criterion met
CACTATAA | Criterion not met

Q: Please tell me: is the sequence ATCATGTA at or over 0.1 in terms of PBM 8-mer E-score?
Ans: Criterion met

Q: Is the recorded value of PBM 8-mer E-score equal to or greater than 0.1 for this sequence? CTCATGAA
Ans: Criterion not met

Q: Dear colleague, could you confirm whether GGAATACC has PBM 8-mer E-score at or above 0.1?
Ans: Criterion not met

Q: Is it the case that AACTATTA has PBM 8-mer E-score reaching or exceeding 0.1?
Ans: Criterion met

====

- Test system: 2Sp-muMax20 (muMax20 with two 2,6-bis(methyl)pyridine Cys staples)
- experiment_summary: PBM 8-mer E-score (E-score (rank enrichment, -0.5 to 0.5)); higher = stronger preferential binding
Whole data set: some 33,000 sequences, median “E-score (rank enrichment, -0.5 to 0.5)” near -0.0043, cut for the highest 2% near 0.24. For the sample, the highest values were picked, then their nearest neighbours and some sequences at random.
Assign classes using reported PBM 8-mer E-score values and the ranges low (below 0.06), mid (0.06 to below 0.2), high (0.2 or more), please.

Q: Class (by measured PBM 8-mer E-score) for ACGTGGAT
Ans: high

Q: Using the reported PBM 8-mer E-score, which band applies to AGTCACGC ?
Ans: high

Q: State the class of the sequence shown: GAAGCCCC
Ans: low
